RECORDED ENDPOINT: melting point

Problem: What value of melting point has been recorded for this entry: CC(C)c1ccc(-c2noc3c2CCC(C(=O)O)CC3)cc1 (stereo unspecified)
Solution: 109 to 111 °C

Problem: What value of melting point has been recorded for this entry: CC(C)(C)c1ccc(C(O)CCCN2CCC(C(O)(c3ccccc3)c3ccc(C(C)(C)C)cc3)CC2)cc1 (stereo unspecified)
Solution: 179 to 182 °C

Problem: What value of melting point has been recorded for this entry: CN(C)C=CC(=O)c1cccc(N(C)C(=O)C2CCC2)c1
Solution: 117 to 119 °C

Problem: What value of melting point has been recorded for this entry: COC(=O)CN1CCc2[nH]c(=O)n3nc(-c4ccccc4F)nc3c2C1
Solution: 265 to 266 °C

Problem: What value of melting point has been recorded for this entry: Cc1ccc(-c2c(Cl)nc3ncnn3c2Cl)c(F)c1
Solution: 152 °C

Problem: What value of melting point has been recorded for this entry: CC(=O)NCCCNc1ccc(NCCN(C)C)c2c1C(=O)c1ccccc1C2=O
Solution: 193 to 194 °C

Problem: What value of melting point has been recorded for this entry: Cc1c(Cl)cccc1NC(=O)Nc1ccc(-n2nc(C(F)(F)F)cc2C(F)(F)F)cc1
Solution: 193 to 196 °C

Problem: What value of melting point has been recorded for this entry: O=C(c1ccccc1)c1ccc(O)c(Cl)c1Cl
Solution: 123 to 126 °C

Problem: What value of melting point has been recorded for this entry: Cc1c(-c2ccc(NC(=O)C(C)C)cc2)sc2c1c(=O)c(C(=O)C(C)C)cn2Cc1c(F)cccc1F
Solution: 219 to 222 °C

Problem: What value of melting point has been recorded for this entry: CCOc1cccc(-c2cc(F)c(NC(=O)c3ccccc3CO)c(F)c2)c1
Solution: 94.8 to 99.1 °C

Problem: What value of melting point has been recorded for this entry: Cc1c(C(F)(F)F)cnn(-c2cc(OCC=O)c(Cl)cc2F)c1=O
Solution: 107 °C

Problem: What value of melting point has been recorded for this entry: O=C1CC(c2ccccc2)C(=S)N1c1ccc(Cl)cc1 (stereo unspecified)
Solution: 153 to 155 °C

Problem: What value of melting point has been recorded for this entry: Cc1c(N2C[C@H](CF)[C@](C)(N)C2)c(F)cc2c(=O)c(C(=O)O)cn([C@@H]3C[C@@H]3F)c12
Solution: 135 to 137 °C

Problem: What value of melting point has been recorded for this entry: Cc1cn(C2CC(N=[N+]=[N-])C(C(O)S(C)(=O)=O)O2)c(=O)n(C(=O)c2ccccc2)c1=O (stereo unspecified)
Solution: 86 to 88 °C

Problem: What value of melting point has been recorded for this entry: CCOC(=O)c1c(C)[nH]c2ccc(OCC3CO3)cc12 (stereo unspecified)
Solution: 93 to 94 °C

Problem: What value of melting point has been recorded for this entry: CC(=O)Nc1cnn2c(C)nc3ccccc3c12
Solution: 258 to 260 °C

Problem: What value of melting point has been recorded for this entry: Nc1cc(N2CC(COc3ccccc3)OC2=O)ccn1 (stereo unspecified)
Solution: 191 to 192 °C

Problem: What value of melting point has been recorded for this entry: COc1ccc(C2CCCCC2)cc1-c1csc(NC(=O)C2CCN(C(=O)OC(C)(C)C)CC2)n1
Solution: 193 °C

Problem: What value of melting point has been recorded for this entry: Cn1c(C(F)(F)F)cc(=O)n(-c2cc(OCN3C(=O)CCC3=O)c(Cl)cc2F)c1=O
Solution: 212 to 214 °C

Problem: What value of melting point has been recorded for this entry: CC(C)C(=O)Nc1cc([N+](=O)[O-])c(Sc2cccc3cnccc23)cc1N
Solution: 219 to 221 °C

Problem: What value of melting point has been recorded for this entry: O=C(O)c1ccccc1COc1ccc(CCCO)cc1
Solution: 139 to 140 °C

Problem: What value of melting point has been recorded for this entry: O=C1CC(c2ccccc2)C(=O)N1c1cc(Cc2n[nH]c(=O)c3ccccc23)ccc1F (stereo unspecified)
Solution: 114 to 120 °C

Problem: What value of melting point has been recorded for this entry: CC(C)(C)c1nnc(NN=Cc2ccccc2)s1
Solution: 195 to 196 °C

Problem: What value of melting point has been recorded for this entry: CC(C)(CO)c1ccc(C#N)cc1
Solution: 70 to 82 °C

Problem: What value of melting point has been recorded for this entry: O=C(O)c1ccc(-c2nc(-c3ccccn3)cs2)cc1
Solution: > 300 °C

Problem: What value of melting point has been recorded for this entry: Cc1ccc2c(c1)C(c1ccccc1)(C(F)(F)F)c1cc(C)ccc1O2
Solution: 150 to 151 °C

Problem: What value of melting point has been recorded for this entry: CCc1cc(OC)cc2nc(-c3cccnc3N3CC[C@H](N(C)C)C3)oc(=O)c12
Solution: 148 to 155 °C

Problem: What value of melting point has been recorded for this entry: O=C(O)C=C1SC(=NC2CCCCC2)N(C2CCCCC2)C1=O
Solution: 189 to 190 °C

Problem: What value of melting point has been recorded for this entry: CC12CCC(C(=O)O)=CC1=CCC1C2CCC2(C)C(C(=O)CCC3CCCCC3)CCC12 (stereo unspecified)
Solution: 247 °C

Problem: What value of melting point has been recorded for this entry: Fc1cccc2c(CCc3ccsc3)ccnc12
Solution: 96 to 97 °C

Problem: What value of melting point has been recorded for this entry: ON=C1OC2C=CC1CC2 (stereo unspecified)
Solution: 153 to 154 °C

Problem: What value of melting point has been recorded for this entry: CCOC(=O)c1cc2c(nc1C)CCCC2
Solution: 105 to 106 °C

Problem: What value of melting point has been recorded for this entry: CC(C(N)=O)c1ccc(NS(=O)(=O)C(C)C)cc1 (stereo unspecified)
Solution: 125 to 127 °C

Problem: What value of melting point has been recorded for this entry: C#CCn1c(-c2cc(Cl)nc(Cl)c2)nn(C(C)(C)C)c1=O
Solution: 107 to 109 °C

Problem: What value of melting point has been recorded for this entry: O=C(O)c1cccc(NC(=O)C(CS)CC2CN(Cc3ccccc3)CCO2)c1 (stereo unspecified)
Solution: 110 to 112 °C

Problem: What value of melting point has been recorded for this entry: O=C1CCC2=C1C(c1cc(Br)cs1)C1=C(CCS1)N2 (stereo unspecified)
Solution: 254 to 255 °C

Problem: What value of melting point has been recorded for this entry: CCN1CC(=O)N(c2ccccc2C(F)(F)F)C1=S
Solution: 82 to 85 °C

Problem: What value of melting point has been recorded for this entry: C[C@H]1CCCC(C)(C)[C@@H]1[C@H](O)c1ccc(F)cc1
Solution: 55 to 57 °C

Problem: What value of melting point has been recorded for this entry: Cc1cc(C)cc(-c2nc(CCl)co2)c1
Solution: 76 to 77 °C

Problem: What value of melting point has been recorded for this entry: CCOC(=O)c1c([N+](=O)[O-])c(-c2cccc([N+](=O)[O-])c2)[nH]c(=O)c1C(=O)OCC
Solution: 188 to 190 °C

Problem: What value of melting point has been recorded for this entry: CCN1CC(CCN(C)C)Oc2ncccc2C1=S (stereo unspecified)
Solution: 73 °C
